molecular target: panel of 255 wild-type kinases (Homo sapiens); assay: Kinase panel profiling at 1 µmol/L (MSA or IMAP), percentage inhibition; type: biochemical; details: kinase PGK; 1 µmol/L single concentration; read-out: %-inhibition at 1 µmol/L, PGK
property-measured: inhibition at 1 µM (%)
Number in %, nothing else.

// solved cases for inhibition at 1 µM follow
Task item: Kindly state the measured inhibition at 1 µM obtained for `O=C(Nc1cnn2ccc(N3CCC[C@@H]3c3cc(F)ccc3F)nc12)N1CC[C@H](O)C1` with panel of 255 wild-type kinases (Homo sapiens).
Reply: -2.33

Task item: Kindly state the measured inhibition at 1 µM obtained for `CCc1nc(C(N)=O)c(Nc2ccc(N3CCC(N4CCN(C)CC4)CC3)c(OC)c2)nc1NC1CCOCC1` with panel of 255 wild-type kinases (Homo sapiens).
Reply: 41

Task item: Kindly state the measured inhibition at 1 µM obtained for `CCN1C(=O)N(c2c(F)c(OC)cc(OC)c2F)Cc2cnc3[nH]c(CN4CCOCC4)cc3c21` with panel of 255 wild-type kinases (Homo sapiens).
Reply: -1.82

Task item: Kindly state the measured inhibition at 1 µM obtained for `Cn1cc(-c2cc3c(N4CCN(c5ncc([C@@](C)(N)c6ccc(F)cc6)cn5)CC4)ncnn3c2)cn1` with panel of 255 wild-type kinases (Homo sapiens).
Reply: -2.58

Task item: Kindly state the measured inhibition at 1 µM obtained for `CCn1c(=O)c(-c2cc(NC(=O)Nc3ccccc3)c(F)cc2Br)cc2cnc(NC)cc21` with panel of 255 wild-type kinases (Homo sapiens).
Reply: -0.449

Task item: Kindly state the measured inhibition at 1 µM obtained for `CCN1CCN(c2ccc(Nc3cc(N(C)C(=O)Nc4c(Cl)c(OC)cc(OC)c4Cl)ncn3)cc2)CC1` with panel of 255 wild-type kinases (Homo sapiens).
Reply: -2

Further cases:
Task item: Kindly state the measured inhibition at 1 µM obtained for `Cc1cc(Nc2ncnc3ccc(NC4=NC(C)(C)CO4)cc23)ccc1Oc1ccn2ncnc2c1` with panel of 255 wild-type kinases (Homo sapiens).
Reply: 0.26

* * *

target: panel of 255 wild-type kinases (Homo sapiens, UniProt P68400); assay: Kinase panel profiling at 1 µmol/L (MSA or IMAP), percentage inhibition; assay type: biochemical; conditions: kinase CK2α1/β; 1 µmol/L single concentration; read-out: %-inhibition at 1 µmol/L, CK2α1/β
Sequence (P68400 whole entry): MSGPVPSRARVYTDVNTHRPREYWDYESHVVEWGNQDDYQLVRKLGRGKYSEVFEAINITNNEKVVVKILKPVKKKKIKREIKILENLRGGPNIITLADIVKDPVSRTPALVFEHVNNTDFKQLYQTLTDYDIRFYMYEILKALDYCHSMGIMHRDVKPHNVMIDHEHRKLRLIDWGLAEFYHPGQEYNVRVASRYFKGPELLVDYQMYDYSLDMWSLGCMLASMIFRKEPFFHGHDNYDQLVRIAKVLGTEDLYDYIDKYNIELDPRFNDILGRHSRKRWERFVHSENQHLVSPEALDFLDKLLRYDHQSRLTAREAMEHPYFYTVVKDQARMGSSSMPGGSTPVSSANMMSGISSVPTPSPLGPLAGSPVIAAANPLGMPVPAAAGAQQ
property-measured: inhibition at 1 µM (%)
Number in %, nothing else.

Task item: Need inhibition at 1 µM of COc1ccc(CN2C3CC2CN(c2ccc(-c4cc(OCC(C)(C)O)cn5ncc(C#N)c45)cn2)C3)cn1 [selpercatinib] , thanks.
Reply: -1.82

Task item: Need inhibition at 1 µM of COC(=O)N[C@@H](C)CNc1nccc(-c2cn(C(C)C)nc2-c2cc(Cl)cc(NS(C)(=O)=O)c2F)n1 [encorafenib] , thanks.
Reply: -1

Task item: Need inhibition at 1 µM of Cn1cnc2c(F)c(Nc3ccc(Br)cc3F)c(C(=O)NOCCO)cc21 [binimetinib] , thanks.
Reply: -4.22

Task item: Need inhibition at 1 µM of Cc1nc(NC(=O)N2CCC[C@H]2C(N)=O)sc1-c1ccnc(C(C)(C)C(F)(F)F)c1 [alpelisib] , thanks.
Reply: -1.52

Task item: Need inhibition at 1 µM of CCN1CCN(c2ccc(Nc3cc(N(C)C(=O)Nc4c(Cl)c(OC)cc(OC)c4Cl)ncn3)cc2)CC1 [infigratinib] , thanks.
Reply: -4

Task item: Need inhibition at 1 µM of CCn1c(=O)c(-c2cc(NC(=O)Nc3ccccc3)c(F)cc2Br)cc2cnc(NC)cc21 [ripretinib] , thanks.
Reply: 1

Further cases:
Task item: Need inhibition at 1 µM of Cn1cc(-c2cc3c(N4CCN(c5ncc([C@@](C)(N)c6ccc(F)cc6)cn5)CC4)ncnn3c2)cn1 [avapritinib] , thanks.
Reply: -3.77

Task item: Need inhibition at 1 µM of COc1cc2ncnc(Nc3ccc(F)c(Cl)c3)c2cc1NC(=O)/C=C/CN1CCCCC1 [dacomitinib] , thanks.
Reply: -4

Task item: Need inhibition at 1 µM of C[C@H]1Oc2cc(cnc2N)-c2c(nn(C)c2C#N)CN(C)C(=O)c2ccc(F)cc21 [lorlatinib] , thanks.
Reply: -2

Task item: Need inhibition at 1 µM of CCN1C(=O)N(c2c(F)c(OC)cc(OC)c2F)Cc2cnc3[nH]c(CN4CCOCC4)cc3c21 [pemigatinib] , thanks.
Reply: -2.8

Task item: Need inhibition at 1 µM of C[C@H](Nc1ncnc2nc[nH]c12)c1cc2cccc(Cl)c2c(=O)n1-c1ccccc1 [duvelisib] , thanks.
Reply: -2.47

Task item: Need inhibition at 1 µM of Cc1cc(Nc2ncnc3ccc(NC4=NC(C)(C)CO4)cc23)ccc1Oc1ccn2ncnc2c1 [tucatinib] , thanks.
Reply: -4

Task item: Need inhibition at 1 µM of CN1CCN(c2ccc(C(=O)Nc3n[nH]c4ccc(Cc5cc(F)cc(F)c5)cc34)c(NC3CCOCC3)c2)CC1 [entrectinib] , thanks.
Reply: 1.84

Task item: Need inhibition at 1 µM of FC(F)(F)c1ccc(CNc2ccc(Cc3c[nH]c4ncc(Cl)cc34)cn2)cn1 [pexidartinib] , thanks.
Reply: 0.256

Task item: Need inhibition at 1 µM of CO[C@]1(C(=O)N[C@@H](C)c2ccc(-n3cc(F)cn3)nc2)CC[C@H](c2nc(C)cc(Nc3cc(C)[nH]n3)n2)CC1 [pralsetinib] , thanks.
Reply: -2.52

* * *

molecular target: UniProt Q15208; assay: Kinase panel profiling at 1 µmol/L (MSA or IMAP), percentage inhibition; format: biochemical; settings: NDR1; 1 µmol/L single concentration; read-out: %-inhibition, NDR1
Sequence (Q15208 whole entry): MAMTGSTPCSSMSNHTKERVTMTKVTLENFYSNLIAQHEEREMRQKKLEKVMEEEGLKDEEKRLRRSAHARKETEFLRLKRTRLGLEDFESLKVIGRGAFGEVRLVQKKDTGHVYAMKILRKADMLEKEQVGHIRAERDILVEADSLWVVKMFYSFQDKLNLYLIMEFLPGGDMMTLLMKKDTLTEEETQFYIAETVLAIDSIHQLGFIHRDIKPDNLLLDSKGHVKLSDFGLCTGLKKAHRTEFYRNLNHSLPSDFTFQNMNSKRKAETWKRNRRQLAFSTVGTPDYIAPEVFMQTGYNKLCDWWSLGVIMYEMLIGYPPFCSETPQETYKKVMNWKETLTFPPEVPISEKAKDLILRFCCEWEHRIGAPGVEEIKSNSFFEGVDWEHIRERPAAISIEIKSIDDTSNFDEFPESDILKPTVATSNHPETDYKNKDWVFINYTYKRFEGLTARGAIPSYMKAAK
# inhibition at 1 µM per record follows
Number in %, nothing else.

// solved cases for inhibition at 1 µM follow
Task item: Kindly state the measured inhibition at 1 µM obtained for `CCc1nc(C(N)=O)c(Nc2ccc(N3CCC(N4CCN(C)CC4)CC3)c(OC)c2)nc1NC1CCOCC1` with UniProt Q15208.
Reply: 68

Task item: Kindly state the measured inhibition at 1 µM obtained for `CN1CCN(c2ccc(C(=O)Nc3n[nH]c4ccc(Cc5cc(F)cc(F)c5)cc34)c(NC3CCOCC3)c2)CC1` with UniProt Q15208.
Reply: 49

Task item: Kindly state the measured inhibition at 1 µM obtained for `C=CC(=O)N1CCC([C@@H]2CCNc3c(C(N)=O)c(-c4ccc(Oc5ccccc5)cc4)nn32)CC1` with UniProt Q15208.
Reply: -1.86

Now look at this entry.
Task item: Kindly state the measured inhibition at 1 µM obtained for `Cn1cnc2c(F)c(Nc3ccc(Br)cc3F)c(C(=O)NOCCO)cc21` with UniProt Q15208.
Reply: -1.86

* * *

# IC50 per record follows
test system: 134 cancer cell lines; assay: Cell viability assay (ATPlite, 72 hours), IC50 on cancer cell line panel; settings: HEC-6, read-out: IC50 in cell proliferation assay, HEC-6 cell line (EGFR p.A289V)
Number in µM, nothing else.

Task item: Need IC50 of CCc1nc(C(N)=O)c(Nc2ccc(N3CCC(N4CCN(C)CC4)CC3)c(OC)c2)nc1NC1CCOCC1 [gilteritinib] , thanks.
Reply: 1.43

Task item: Need IC50 of COc1cc2ncnc(Nc3ccc(F)c(Cl)c3)c2cc1NC(=O)/C=C/CN1CCCCC1 [dacomitinib] , thanks.
Reply: 2.51

Further cases:
Task item: Need IC50 of Cc1cc(Nc2ncnc3ccc(NC4=NC(C)(C)CO4)cc23)ccc1Oc1ccn2ncnc2c1 [tucatinib] , thanks.
Reply: 14.8

Task item: Need IC50 of CN1CCN(c2ccc(C(=O)Nc3n[nH]c4ccc(Cc5cc(F)cc(F)c5)cc34)c(NC3CCOCC3)c2)CC1 [entrectinib] , thanks.
Reply: 6.83

* * *

# pIC50 per record follows
test system: 134 cancer cell lines; assay: Cell viability assay (ATPlite, 72 hours), IC50 on cancer cell line panel; details: Homo sapiens, HuTu80, read-out: IC50 in cell proliferation assay, HuTu 80 cell line
Expect pIC50 as a plain number equal to -log10 of the molar concentration.

Task item: Kindly state the measured pIC50 obtained for `Cc1nc(NC(=O)N2CCC[C@H]2C(N)=O)sc1-c1ccnc(C(C)(C)C(F)(F)F)c1` with 134 cancer cell lines.
Reply: 5.96

Now look at this entry.
Task item: Kindly state the measured pIC50 obtained for `CO[C@]1(C(=O)N[C@@H](C)c2ccc(-n3cc(F)cn3)nc2)CC[C@H](c2nc(C)cc(Nc3cc(C)[nH]n3)n2)CC1` with 134 cancer cell lines.
Reply: 6.06

* * *

test system: 134 cancer cell lines; assay: Cell viability assay (ATPlite, 72 hours), IC50 on cancer cell line panel; settings: Homo sapiens, A-375, read-out: IC50 in cell proliferation assay
property-measured: IC50 (µM)
Number in µM, nothing else.

Task item: Kindly state the measured IC50 obtained for `CCn1c(=O)c(-c2cc(NC(=O)Nc3ccccc3)c(F)cc2Br)cc2cnc(NC)cc21` with 134 cancer cell lines.
Reply: 2.92
